- Read-out: Interleukin 17A (IL17A), IL17A (gene 3605)
- ASSAY_NOTES: BSK_BT_xIL17A: BioMAP Diversity Plus: BT Assay for Interleukin 17A (IL17A) Biomarker Activity (AID 2284229)
- DETAILS: primary human B cells with PBMC
Activity calls are given as the source filed them. Rule for the calls: active = hit-call score of the fitted dose curve at least 0.9, where 1 is the maximum; inactive = score below 0.9.
Answer with one of the outcomes given here: label 1 = active, label 0 = inactive

[in] Lab log entry: FC(F)(F)C(F)(F)C(F)(F)N(C(F)(F)C(F)(F)C(F)(F)F)C(F)(F)C(F)(F)C(F)(F)F — outcome as called in the assay?
[out] label 0

[in] Lab log entry: OCCCC(F)(F)C(F)(F)C(F)(F)F — outcome as called in the assay?
[out] label 0

[in] Lab log entry: O=C(O)C=C(C(F)(F)F)C(F)(F)F — outcome as called in the assay?
[out] label 0

[in] Lab log entry: CCCCCCCCC(F)(F)C(F)(F)C(F)(F)C(F)(F)C(F)(F)C(F)(F)F — outcome as called in the assay?
[out] label 0

[in] Lab log entry: FC(F)(F)C(F)(F)C(F)(F)C(F)(F)C(F)(F)CCI — outcome as called in the assay?
[out] label 0

[in] Lab log entry: FC(F)(Br)C(F)(F)C(F)(F)C(F)(F)C(F)(F)C(F)(F)Br — outcome as called in the assay?
[out] label 0

Data origin, for the record: PubChem BioAssay (EPA / NIEHS)
